// reported koff for each item listed
- ASSAYED SYSTEM: T1, human CD22-Fc fusion protein (human, UniProt P20273 20-687, limits assumed)
- T1 construct: also called recombinant CD22-Fc fusion protein; not shown: Fc part
- T1 sequence (looked up): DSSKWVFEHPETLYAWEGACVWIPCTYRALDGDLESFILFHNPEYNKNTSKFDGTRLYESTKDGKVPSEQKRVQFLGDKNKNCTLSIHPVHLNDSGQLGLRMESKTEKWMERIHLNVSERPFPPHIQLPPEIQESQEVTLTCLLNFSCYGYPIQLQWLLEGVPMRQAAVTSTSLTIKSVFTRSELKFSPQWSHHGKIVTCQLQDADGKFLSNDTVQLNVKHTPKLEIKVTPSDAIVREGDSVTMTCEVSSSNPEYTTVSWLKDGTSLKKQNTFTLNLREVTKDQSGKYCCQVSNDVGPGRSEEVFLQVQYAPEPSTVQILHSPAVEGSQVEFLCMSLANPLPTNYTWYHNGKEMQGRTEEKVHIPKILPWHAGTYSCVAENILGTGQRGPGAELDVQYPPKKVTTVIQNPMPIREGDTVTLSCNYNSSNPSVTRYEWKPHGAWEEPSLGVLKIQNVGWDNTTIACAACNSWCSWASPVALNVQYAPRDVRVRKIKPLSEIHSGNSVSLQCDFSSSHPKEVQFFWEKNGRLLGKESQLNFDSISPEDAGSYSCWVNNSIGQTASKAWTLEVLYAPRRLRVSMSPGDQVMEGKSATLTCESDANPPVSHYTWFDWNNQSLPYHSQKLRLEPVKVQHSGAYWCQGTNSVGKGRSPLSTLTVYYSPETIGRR
- ASSAY SUMMARY: SPR Biacore T200; CD22-Fc captured on Protein G chip, scFv as analyte;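 also: run in 1×HBST buffer, with the response of reference flow cell 1 subtracted from the CD22 capture cell and kinetics fitted in Biacore T200 evaluation software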
Just the number in s⁻¹, nothing appended.

Previously resolved entries follow.
[
  {
    "BINDER": "EP160-D02 scFv (scFv, VH-VL orientation; made in E. coli, His-tag purified; also called EP160-D2; not shown: C-terminal flag and 6xHIS tag) scFv: QVQLVQSGAEVKKPGASVKVSCKASGYTFTSYGISWVRQAPGQGLEWMGWISAYNGNTNYAQKLQGRVTMTTDTSTSTAYMELRSLRSDDTAVYYCARDPLEPLESDYWGQGTLVTVSSGGGGSGGGGSGGGGSEIVMTQSPATLSVSPGEGVTLSCRASQSVSSNLAWYQQRPGQAPRLLIYGASIKATDVPDRFSGGGSGTDFSLSITNLQSEDFAVYYCQQYHTWPPVTFGGGTKVEIK",
    "QUANTITY UNIT": "s⁻¹",
    "RESULT": 0.000107
  },
  {
    "BINDER": "EP160-F04 scFv (scFv, VH-VL orientation; not shown: C-terminal flag and 6xHIS tag) scFv: EVQLVQSGAEVKKPGASVKVSCKASGYTFTSYGISWVRQAPGQGLEWMGWISAYNGNTNYAQKLQGRVTMTTDTSTSTAYMELRSLKSDDTAVYYCAISIGAFDIWGQGTMVTVSSGGGGSGGGGSGGGGSEIVMTQSPATLSVSPGEEVTLSCRASQSVSSNLAWYQQRPGQAPRLLIYGASIKATDVPDRFSGGGSGTDFTLSISNLQSEDFAVYYCQQYHTWPPVTFGGGTKVEIK",
    "QUANTITY UNIT": "s⁻¹",
    "RESULT": 0.000283
  },
  {
    "BINDER": "EP35-C6 scFv (scFv, VH-VL orientation; also called EP35-C06; not shown: C-terminal flag and 6xHIS tag) scFv: QVQLVESGGGVVQPGGSLRLSCAASGFPFSRFGIHWVRQAPGKGLDWVAFIRTDGGSQHYADSVKGRFTISRDNSENMVYLQMNSLRVDDTALYYCAKDPPRVTGNTGYDYDWGQGVQVTVSSGGGGSGGGGSGGGGSDIVMTQSPDSLAVSLGERATINCKSSQSVLYSANNKNCLAWYQQKSGQPPKLLIYWASTRESGVPGRFSGSGSGTDFTLTISSLQAEDVAVYYCQQYYSPPRTFGQGTKLEIK",
    "QUANTITY UNIT": "s⁻¹",
    "RESULT": 0.000985
  }
]

Query binder follows.
Challenge: Kindly indicate its recorded koff. Item: EP97-A01 scFv (scFv, VH-VL orientation; not shown: C-terminal flag and 6xHIS tag) scFv: EVQLVQSGGGVVQPGRSLKLSCAASGFTFSSYGMHWVRQAPGKGLEWVAVIWYDGSNKYYADSVKGRFTISRDNSKNTLYLQMNSLRAEDTAVYYCARDGWKGFDYWGQGTTVTVSSGGGGSGGGGSGGGGSEIVLTQSPATLSVSPGEGVTLSCRASQSVSSNLAWYQQRPGQAPRLLIYGASIKATDVPDRFSGGGSGTDFTLSISNLQSEDFAVYYCQQYHTWPPVTFGGGTKVEIK
Response given: 0.00101
